Test system: SR
Assay: Growth inhibition of human SR cells assessed as cell growth at 10 uM by sulforhodamine B assay
Type: functional
Details: read-out: Activity
Recorded growth at 10 µM values for a group of compounds are listed next.
Property: growth at 10 µM (%)

1. CC(C)=CC(=O)O[C@@H]1CC(C)(C)C[C@H]2C3=CC[C@@H]4[C@@]5(C)CC[C@H](O)C(C)(C)[C@@H]5CC[C@@]4(C)[C@]3(C)CC[C@@]12C(=O)O [Reduced Lantadene B] :: 70.2
2. COc1cc(/C=C2\C[C@]3(C)[C@H]4CC=C5[C@@H]6CC(C)(C)C[C@@H](O)[C@]6(C(=O)O)CC[C@@]5(C)[C@]4(C)CC[C@H]3C(C)(C)C2=O)ccc1O :: 87.1
3. CC1(C)C[C@@H](O)[C@]2(C(=O)O)CC[C@]3(C)C(=CC[C@@H]4[C@@]5(C)CCC(=O)C(C)(C)[C@@H]5CC[C@]43C)[C@@H]2C1 :: 83.7
